Tested on: rodent lifetime carcinogenesis bioassay, tumor incidence TD50
assay notes: carcinogenic potency in animals, long-term in vivo studies, CPDB compilation (AID 1745844)
experimental parameters: mouse; strain Swiss albino; males; by gavage; site: lung; lesion: adenocarcinoma; dosed 53 weeks; study length 119 weeks

given smiles | TD50 (mg/kg/day)
CC(C)C/C=N/N(C)C=O | 10.7

* * *

System: rodent lifetime carcinogenesis bioassay, tumor incidence TD50
assay notes: carcinogenic potency in animals, long-term in vivo studies, CPDB compilation (AID 1745844)
experimental parameters: rat; strain Sas:MRC(WI)BR; males; in feed; site: liver; lesion: hepatocellular carcinoma; dosed 140 weeks; study length 144 weeks
parameter measured: TD50 (mg/kg/day)

given smiles | parameter measured | units label | recorded number
Cc1ncc([N+](=O)[O-])n1CCO | TD50 | mg/kg/day | 45900

// data source = PubChem BioAssay AID1745844
